So I've got a bunch of binders here, and I need their pEC50 values.
Molecular target: T1, human GPC3 on CHO-K1-human GPC3 cells (clone CHOK1-hGPC3.2B5) (human, UniProt P51654 25-554)
T1 construct: whole, on cells; Stably transfected CHO-K1 clone 2B5
Assay: FACS on CHOK1-hGPC3.2B5 cells;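 also: flow cytometry binding of chimeric antibodies to the cells, read out as mean fluorescence intensity, with the half-maximal concentration derived by curve fitting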
Answers are plain numbers, as −log10 of the molar value.

Using the record for F1.111.11 human-murine chimeric antibody (antibody, human IgG1, kappa, V domains shown) VH: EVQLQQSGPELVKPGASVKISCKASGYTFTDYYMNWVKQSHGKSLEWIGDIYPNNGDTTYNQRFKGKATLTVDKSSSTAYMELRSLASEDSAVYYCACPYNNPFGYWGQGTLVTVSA VL: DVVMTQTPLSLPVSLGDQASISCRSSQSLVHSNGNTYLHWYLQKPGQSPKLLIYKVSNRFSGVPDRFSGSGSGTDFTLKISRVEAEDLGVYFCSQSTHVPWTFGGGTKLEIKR , report its pEC50. 8.97

Could you now consider this next binder?
Using the record for F1.145.22 human-murine chimeric antibody (antibody, human IgG1, kappa, V domains shown) VH: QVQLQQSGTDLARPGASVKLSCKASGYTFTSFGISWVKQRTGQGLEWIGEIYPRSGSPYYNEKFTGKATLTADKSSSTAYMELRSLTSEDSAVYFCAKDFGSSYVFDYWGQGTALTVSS VL: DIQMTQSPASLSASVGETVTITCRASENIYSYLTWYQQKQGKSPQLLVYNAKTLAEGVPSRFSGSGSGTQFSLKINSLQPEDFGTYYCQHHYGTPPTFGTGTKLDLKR , report its pEC50. 8.93

Hey, just so you know, these numbers are from patent US20260116991A1.
